Values compiled from patent US20250277057A1.

- Measured target: human activated protein C (human, UniProt P04070 43-197; P04070 212-461)
- Assay protocol: cell-based or functional assay
A collection of binders and their measured Mean clotting time (s), FIX-deficient plasma, APC-antibody concentration 5 ug/ml
The reply should contain only the number, in s.

Worked cases, Mean clotting time (s), FIX-deficient plasma, APC-antibody concentration 5 ug/ml given:
binder="HAPC-14-6 (antibody, V domains shown, Whole IgG, backbone hIgG1; also called HPAC 14-6; No. 6) VH: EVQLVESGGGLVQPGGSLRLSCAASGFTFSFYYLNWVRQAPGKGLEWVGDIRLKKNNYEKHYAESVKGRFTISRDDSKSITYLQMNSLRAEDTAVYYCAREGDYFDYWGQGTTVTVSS VL: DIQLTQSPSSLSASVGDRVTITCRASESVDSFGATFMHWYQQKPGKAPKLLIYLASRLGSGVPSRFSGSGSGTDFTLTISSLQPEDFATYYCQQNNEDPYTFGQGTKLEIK" reported_measurement=180
binder="Humanized antibody 13 (HAPC-13) (antibody, V domains shown, also called Humab001-13; NO; 13 antibody) VH: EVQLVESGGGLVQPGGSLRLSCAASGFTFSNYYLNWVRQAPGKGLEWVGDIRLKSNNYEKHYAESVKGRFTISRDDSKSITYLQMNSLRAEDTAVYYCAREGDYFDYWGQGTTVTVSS VL: DIQMTQSPSSLSASVGDRVTITCRASESVDSFGATFMHWYQQKPGKAPKLLIYLASNLESGVPSRFSGSGSGTDFTLTISSLQPEDFATYYCQQNNEDPYTFGQGTKLEIK" reported_measurement=326

Moving on to the next binder.
Input line: I'd like to know its Mean clotting time (s), FIX-deficient plasma, APC-antibody concentration 5 ug/ml. The binder in question is HAPC-14-3 (antibody, V domains shown, Whole IgG, backbone hIgG1; also called HPAC 14-3; No. 3) VH: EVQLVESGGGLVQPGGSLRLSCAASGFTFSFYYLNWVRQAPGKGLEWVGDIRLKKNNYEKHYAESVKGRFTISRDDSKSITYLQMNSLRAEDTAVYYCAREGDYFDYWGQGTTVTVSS VL: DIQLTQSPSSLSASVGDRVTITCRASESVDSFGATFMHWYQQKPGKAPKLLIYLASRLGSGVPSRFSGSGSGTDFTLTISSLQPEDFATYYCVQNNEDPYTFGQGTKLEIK
Output line: 185
